These measurements were taken from paper PMC9276671.

- Run Description: Plasma pharmacokinetics of ALM201 in Phase I patients (validated LC-MS/MS, Phoenix WinNonlin)
- Run Parameters: human, plasma, sc, 300 mg, Cmax, Gmean (CV), 300 mg SC, day 1 cycle 1, n = 3; plasma LC-MS/MS
No end group written: not given here.

- Sequence String: "IRQQPRDPPTETLELEVSPDPAS [ALM201]"
  Cmax: "2.55 µg/mL"

* * *

- Run Description: Plasma pharmacokinetics of ALM201 in Phase I patients (validated LC-MS/MS, Phoenix WinNonlin)
- Run Parameters: human, plasma, sc, 10 mg, Plasma concentration, geometric mean (CV%), 10 mg SC, day 18 cycle 1, 1.5 h after dosing, n = 1; LC-MS/MS
No end group written: not given here.

- Sequence String: "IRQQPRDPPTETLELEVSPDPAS [ALM201]"
  level at 1.5 h / ng/mL: 352

* * *

- Run Description: Plasma pharmacokinetics of ALM201 in Phase I patients (validated LC-MS/MS, Phoenix WinNonlin)
- Run Parameters: human, plasma, sc, 160 mg, Plasma concentration, geometric mean (CV%), 160 mg SC, day 18 cycle 2, 1.5 h after dosing, n = 1; LC-MS/MS
No end group written: not given here.

- Sequence String: "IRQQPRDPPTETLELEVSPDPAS [ALM201]"
  Measure Unit: "ng/mL"
  level at 1.5 h: 1650

* * *

- Run Description: Plasma pharmacokinetics of ALM201 in Phase I patients (validated LC-MS/MS, Phoenix WinNonlin)
- Run Parameters: human, plasma, sc, 80 mg, Plasma concentration, geometric mean (CV%), 80 mg SC, day 1 cycle 1, 3 h after dosing, n = 3; LC-MS/MS
No end group written: not given here.

- Sequence String: "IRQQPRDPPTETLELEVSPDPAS [ALM201]"
  level at 3 h: "689 ng/mL"

* * *

- Run Description: Plasma pharmacokinetics of ALM201 in Phase I patients (validated LC-MS/MS, Phoenix WinNonlin)
- Run Parameters: human, plasma, sc, 200 mg, Plasma concentration, geometric mean (CV%), 200 mg SC, day 18 cycle 2, 1 h after dosing, n = 2; LC-MS/MS
No end group written: not given here.
Readout Label: level at 1 h (ng/mL)

- Sequence String: "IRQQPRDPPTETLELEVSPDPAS [ALM201]"
  Readout Label: "level at 1 h"
  Quantitative Result: 1470

* * *

- Run Description: Plasma pharmacokinetics of ALM201 in Phase I patients (validated LC-MS/MS, Phoenix WinNonlin)
- Run Parameters: human, plasma, sc, 160 mg, Plasma concentration, geometric mean (CV%), 160 mg SC, day 1 cycle 1, 0.75 h after dosing, n = 3; LC-MS/MS
No end group written: not given here.

- Sequence String: "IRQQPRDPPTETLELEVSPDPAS [ALM201]"
  level at 0.75 h (ng/mL): 1570

* * *

- Run Description: Plasma pharmacokinetics of ALM201 in Phase I patients (validated LC-MS/MS, Phoenix WinNonlin)
- Run Parameters: human, plasma, sc, 200 mg, Plasma concentration, geometric mean (CV%), 200 mg SC, day 18 cycle 4, 0.5 h after dosing, n = 2; LC-MS/MS
No end group written: not given here.

- Sequence String: "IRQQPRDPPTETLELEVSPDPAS [ALM201]"
  level at 0.5 h [ng/mL]: 1080
